- tested-target: T1, human B7-H4 on the cell surface (human, UniProt Q7Z7D3 25-282)
- T1 construct: full-length human B7-H4 on transfected HEK293T cells or endogenous on SK-BR-3 cells; also called SK-BR-3 (endogenous human B7-H4)
- T1 sequence: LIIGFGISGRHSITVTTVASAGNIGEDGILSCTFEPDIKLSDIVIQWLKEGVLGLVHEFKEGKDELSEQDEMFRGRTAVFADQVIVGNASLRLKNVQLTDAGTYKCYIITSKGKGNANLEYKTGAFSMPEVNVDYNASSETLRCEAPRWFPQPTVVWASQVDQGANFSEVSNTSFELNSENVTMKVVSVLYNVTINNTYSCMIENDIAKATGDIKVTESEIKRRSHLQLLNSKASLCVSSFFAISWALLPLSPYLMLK
- procedure-text: flow cytometry, 100 nM, transfected HEK293T
reported-metric: FOP (fold binding over the parental cell line)
I'd appreciate it if you included the unit after the number.

Lookup: What value of FOP (fold binding over the parental cell line) has been recorded for this entry: B7-H4 antibody 15465 (antibody, human IgG1, kappa, V domains shown, human IgG1/kappa) VH: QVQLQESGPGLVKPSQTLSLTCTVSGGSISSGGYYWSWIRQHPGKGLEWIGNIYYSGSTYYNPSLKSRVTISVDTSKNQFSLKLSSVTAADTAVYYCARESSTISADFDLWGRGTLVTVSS VL: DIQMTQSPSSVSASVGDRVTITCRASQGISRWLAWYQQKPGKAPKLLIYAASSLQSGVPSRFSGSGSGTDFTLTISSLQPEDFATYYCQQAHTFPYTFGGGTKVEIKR
Found: 626 fold

Lookup: What value of FOP (fold binding over the parental cell line) has been recorded for this entry: B7-H4 antibody 20500 (antibody, human IgG1, kappa, V domains shown, human IgG1/kappa) VH: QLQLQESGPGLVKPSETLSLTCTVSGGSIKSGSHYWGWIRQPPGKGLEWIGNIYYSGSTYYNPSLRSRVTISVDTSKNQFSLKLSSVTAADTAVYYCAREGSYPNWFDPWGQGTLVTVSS VL: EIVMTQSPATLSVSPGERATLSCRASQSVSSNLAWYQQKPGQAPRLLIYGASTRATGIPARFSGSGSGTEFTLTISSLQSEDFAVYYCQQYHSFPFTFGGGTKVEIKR
Found: 182 fold

Lookup: What value of FOP (fold binding over the parental cell line) has been recorded for this entry: B7-H4 antibody 20502.1 (antibody, human IgG1, kappa, V domains shown, human IgG1/kappa) VH: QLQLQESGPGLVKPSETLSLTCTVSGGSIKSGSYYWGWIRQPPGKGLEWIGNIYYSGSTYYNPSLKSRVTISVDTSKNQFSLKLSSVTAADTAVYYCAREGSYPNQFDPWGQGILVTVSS VL: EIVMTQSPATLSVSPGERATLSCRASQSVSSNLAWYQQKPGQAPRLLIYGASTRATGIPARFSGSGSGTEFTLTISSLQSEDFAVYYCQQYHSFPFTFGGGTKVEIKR
Found: 200 fold

Lookup: What value of FOP (fold binding over the parental cell line) has been recorded for this entry: B7-H4 antibody 15461 (antibody, human IgG1, kappa, V domains shown, human IgG1/kappa) VH: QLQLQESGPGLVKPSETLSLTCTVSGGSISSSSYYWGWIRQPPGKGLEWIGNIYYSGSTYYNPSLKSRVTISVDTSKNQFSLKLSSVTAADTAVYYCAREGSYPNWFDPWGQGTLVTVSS VL: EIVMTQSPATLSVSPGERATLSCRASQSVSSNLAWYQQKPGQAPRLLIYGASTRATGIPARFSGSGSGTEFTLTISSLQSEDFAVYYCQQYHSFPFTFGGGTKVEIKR
Found: 333 fold
